Ki: recorded values
- TARGET_DESC: murine RA-β3 (Mus musculus)
- PROTOCOL_DESCRIPTION: Inhibition of (-)-isoproterenol-induced cAMP accumulation in CHO-Muβ3 cells (antagonists)
API: value field is a number in µM; no unit string.

> print(dat)
                                   compound  unit.of.measurement  readout.value
1  Cc1ccc(OCC(O)C(C)NC(C)C)c2c1CCC2 (centres unmarked)                   µM           4.97

Q. Which Ki is reported with murine RA-β3 (Mus musculus) for this entry: Cn1cc(C(F)(F)F)nc1-c1ccc(OCC(O)CNCCOc2ccc(O)c(C(N)=O)c2)cc1 (centres unmarked) [CGP 20712A] ?
A. 6.42

====

- TARGET_DESC: murine RA-β3 (Mus musculus, UniProt P25962)
- Construct: expressed in transfected cells
- Sequence (P25962 1-388): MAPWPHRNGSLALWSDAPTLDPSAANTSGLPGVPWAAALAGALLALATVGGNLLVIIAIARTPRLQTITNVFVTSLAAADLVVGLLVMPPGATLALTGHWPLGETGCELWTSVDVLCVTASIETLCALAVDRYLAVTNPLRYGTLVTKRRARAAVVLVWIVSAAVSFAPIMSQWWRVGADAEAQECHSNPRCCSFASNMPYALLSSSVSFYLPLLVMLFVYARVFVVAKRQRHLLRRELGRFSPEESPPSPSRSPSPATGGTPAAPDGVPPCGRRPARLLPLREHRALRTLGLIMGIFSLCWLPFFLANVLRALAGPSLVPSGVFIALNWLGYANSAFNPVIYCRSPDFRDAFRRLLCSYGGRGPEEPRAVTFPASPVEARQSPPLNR
- PROTOCOL_DESCRIPTION: cAMP accumulation in CHO-Muβ3 cells (agonists)
- Format: cell-based
- CONDITIONS_USED: CHO-Muβ3; agonist concentration giving 50% of the maximum stimulation; read-out: Kact
READOUT_NAME: EC50 (nM)
API: value field is a number in nM; no unit string.

> print(dat)
                                   molecule  readout.value
1  C=CCOc1ccccc1OCC(O)CNC(C)C (stereo not drawn)            535
2  CNCC(O)c1ccc(O)c(O)c1 (single isomer, unassigned; (-)) [(-)-adrenalin]             23

Moving on to the next molecule.
Q. Query: EC50; subject: CC(C)NCC(O)COc1cccc2[nH]ccc12 (stereo not drawn)
A. 999

====

- TARGET_DESC: murine RA-β3 (Mus musculus)
- PROTOCOL_DESCRIPTION: Binding of [^125 I]ICYP to saturation, intact CHO-Muβ3 cells
- CONDITIONS_USED: saturation/Scatchard, mean±SEM, n=3, read-out: dissociation constant
READOUT_NAME: pKd
// field semantics: pKd = negative decimal log of concentration (mol/L)

Q. Query: pKd; subject: CC(C)(C)NC[C@H](O)COc1cccc2[nH]c(C#N)c([125I])c12 [ICYP, [^125 I]iodocyanopindolol]
A. 9.06

====

- TARGET_DESC: murine RA-β3 (Mus musculus, UniProt P25962)
- Construct: expressed in transfected cells
- PROTOCOL_DESCRIPTION: cAMP accumulation in CHO-Muβ3 cells (agonists)
- Type: cell-based
- CONDITIONS_USED: CHO-Muβ3; % of maximum effect of (-)-isoproterenol
READOUT_NAME: A.I. (% IPR), intrinsic activity (%)
API: value field is a number in %; no unit string.

> print(dat)
                                   compound                               target.desc  readout.value
1  CC(C)NCC(O)COc1cccc2[nH]ccc12 (centres unmarked)  murine RA-β3 (Mus musculus, UniProt P25962)           35.1

Q. Query: A.I. (% IPR), intrinsic activity; subject: C[C@H](Cc1ccc(OCC(=O)O)cc1)NC[C@H](O)c1cccc(Cl)c1 (relative stereo)
A. 107.4

Q. Also CNCC(O)c1ccc(O)c(O)c1 (single isomer, unassigned; (-)) [(-)-adrenalin] ?
A. 90.6

Q. Also C=CCOc1ccccc1OCC(O)CNC(C)C (centres unmarked) ?
A. 43.8

Q. Also CC(C)(C)NCC(O)COc1cccc2[nH]c(=O)[nH]c12 (centres unmarked) [CGP 12177A] ?
A. 74.9

====

- TARGET_DESC: murine RA-β3 (Mus musculus, UniProt P25962)
- Construct: expressed in transfected cells
- PROTOCOL_DESCRIPTION: cAMP accumulation in CHO-Muβ3 cells (agonists)
- Assay type: cell-based
READOUT_NAME: pEC50
// field semantics: pEC50 = negative decimal log of concentration (mol/L)

> print(dat)
                                   compound  readout.value
1  NC[C@H](O)c1ccc(O)c(O)c1 [(-)-noradrenaline]           7.89

Moving on to the next compound.
Q. Query: pEC50; subject: C[C@H](Cc1ccc(OCC(=O)O)cc1)NC[C@H](O)c1cccc(Cl)c1 (relative stereo) [BRL 37344]
A. 9.40

====

EC50: recorded values
- TARGET_DESC: human RA-β3 (Homo sapiens)
- Sequence (P13945 1-402): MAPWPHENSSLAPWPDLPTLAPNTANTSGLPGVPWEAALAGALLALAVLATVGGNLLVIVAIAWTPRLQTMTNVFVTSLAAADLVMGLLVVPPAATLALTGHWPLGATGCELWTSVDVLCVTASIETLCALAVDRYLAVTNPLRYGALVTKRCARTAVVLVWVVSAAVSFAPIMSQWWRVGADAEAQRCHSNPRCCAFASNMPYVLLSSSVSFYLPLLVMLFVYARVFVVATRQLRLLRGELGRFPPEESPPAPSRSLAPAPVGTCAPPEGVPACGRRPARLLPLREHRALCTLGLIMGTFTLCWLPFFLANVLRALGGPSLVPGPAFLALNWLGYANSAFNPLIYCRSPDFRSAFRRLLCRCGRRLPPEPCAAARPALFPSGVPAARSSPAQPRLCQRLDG
- PROTOCOL_DESCRIPTION: cAMP accumulation in CHO-Huβ3 cells (agonists)
- CONDITIONS_USED: CHO-Huβ3; agonist concentration giving 50% of the maximum stimulation; read-out: Kact

Below, each entry is followed by its recorded EC50 result.
> print(dat)
                                   compound  readout.value
1  C=CCOc1ccccc1OCC(O)CNC(C)C (stereo not drawn) [oxprenolol]        76.6 nM
2  CNCC(O)c1ccc(O)c(O)c1 (single isomer, unassigned; (-)) [(-)-adrenalin]        49.2 nM

Moving on to the next compound.
Q. Query: EC50; subject: CC(C)(C)NCC(O)COc1cccc2[nH]c(=O)[nH]c12 (stereo not drawn) [CGP 12177A]
A. 139 nM
